Entries and their EC50 values follow.
Test system: HRV A16
ASSAY_PROCEDURE: HRV A16 CPE inhibition assay
Assay type: cell-based
SETTINGS: Human rhinovirus sp.; HRV A16, cytopathic effect inhibition

Sample answers from the record:
INSERT INTO assay_data (compound, result) VALUES
  ('Cc1c(S(C)(=O)=O)c[nH]c1C(=O)N[C@]12C(=O)c3c(N)cccc3[C@@]1(O)Oc1cc([C@H]3C[C@@H]3C)ccc12 [Example 28]', '0.16 µM'),
  ('Cc1c(S(C)(=O)=O)c[nH]c1C(=O)NC12C(=O)c3c(N)cccc3C1(O)Oc1cc(C3CCC3C)ccc12 (centres unmarked) [Example 7]', '0.065 µM'),
  ('Cc1c(C(=O)NC23C(=O)c4c(N)cccc4C2(O)Oc2cc(C(C)C)ccc23)[nH]c(S(=O)(=O)NCCN(C)C)c1C (centres unmarked) [Example 4]', '0.056 µM'),
  ('Cc1cc(S(C)(=O)=O)[nH]c1C(=O)NC12C(=O)c3c(N)cccc3C1(O)Oc1cc(C3C[C@H]3C)ccc12 (stereo in doubt) [Example 21]', '0.026 µM');

Now consider a different compound.
Specify reported EC50 for the compound shown: Cc1cc(S(=O)(=O)N2CCN(C)CC2)[nH]c1C(=O)N[C@]12C(=O)c3c(N)cccc3[C@@]1(O)Oc1cc([C@H]3C[C@@H]3C)ccc12 [Example 14]
0.023 µM
